assay summary: chemical genetic growth profiling, strain panel (AID 1159580);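 also: tested at 20 µM; growth read once vehicle control cultures reached saturation at 30 °C; 1 = growth at the plate median or of vehicle wells; lower values mean less growth of the strain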
conditions: S. cerevisiae deletion strains, growth OD, locus YOR265W, strain rbl2
Hit rate of the full screen: of about 5,500 compounds, about 2,000 (36%) were called active. Inconclusive results (about 18%) are left out. Rule as the data show it: active = normalized growth mostly below about 0.91 (no sharp cut-off); inconclusive = no clear call, values can overlap the other calls; inactive = mostly above about 0.92. This is one part of the list.
Lab note: assign the record to one of active, inactive

How was OC[C@H]1OC([S-])[C@H](O)[C@@H](O)[C@@H]1O.[Au+] (stereo partly specified) classified in this test? inactive

Each compound tested received a call. Report the one for Nc1ccncc1 . inactive

How was CC1(C)C(O)CC(O)C2(C)C1CC(O)C1(C)C2CCC2(C)C(c3ccoc3)OC(=O)C3OC321 (stereo unspecified) classified in this test? inactive

I'd appreciate the recorded outcome for Nc1cc(-c2ccncc2)c[nH]c1=O from this test. active

Please let me know the test result on file for COc1c(Cl)ccc(Cl)c1C(=O)O . inactive

Tell me the recorded outcome of this test for C=C[C@H]1CN2CC[C@H]1C[C@@H]2[C@H](O)c1ccnc2ccccc12 . inactive

----------
assay summary: chemical genetic growth profiling, strain panel (AID 1159580)
conditions: S. cerevisiae deletion strains, growth OD, locus YLR027C, strain aat2, active compounds read low
Among all 5,500 compounds or so, about 2,000 (36%) were called active. Inconclusive results (about 18%) are left out. Some of the results follow.
property measured: normalized growth
# output: bare number, no unit

Sample records with normalized growth:
molecule: C/C=C/C(=O)N(CC)c1ccccc1C
property measured: normalized growth
observed value: 0.996

molecule: C=C[C@H]1CN2CC[C@H]1C[C@@H]2[C@H](O)c1ccnc2ccccc12
property measured: normalized growth
observed value: 0.992

molecule: O=C(O)CCC(=O)Nc1ccc(S(=O)(=O)Nc2nccs2)cc1
property measured: normalized growth
observed value: 1.01

normalized growth for CCCC(C(=O)OCCN(CC)CC)(c1ccccc1)c1ccccc1 is 1

Data point: C[C@@H]1CC2C3C[C@H](F)C4=CC(=O)C=C[C@]4(C)[C@@]3(F)[C@@H](O)C[C@]2(C)[C@@]1(O)C(=O)COC(=O)C(C)(C)C (some centres undefined) ; normalized growth = 0.987

# normalized growth (molecule: CC(=O)Nc1ccccc1 ) is 0.961

For C[C@@H]1CC2C3CCC4=CC(=O)C=C[C@]4(C)[C@@]3(F)[C@@H](O)C[C@]2(C)[C@H]1C(=O)CO (some centres undefined) the molecule record lists normalized growth as 1.01

// sample C[C@@H]1O[C@@H](O[C@H]2C[C@@H](O)[C@]3(CO)C4C(CC[C@]3(O)C2)[C@@]2(O)CC[C@H](C3=CC(=O)OC3)[C@@]2(C)C[C@H]4O)[C@H](O)[C@H](O)[C@H]1O (some centres undefined) , its normalized growth was 1.01

For reference, reported normalized growth for CCCCCC1C(=O)CCC1CC(=O)O (centres undefined) stands at 0.984

----------
assay summary: chemical genetic growth profiling, strain panel (AID 1159580)
conditions: S. cerevisiae deletion strains, growth OD, locus YER155C, strain BEM2, active compounds read low
About 2,000 (36%) of roughly 5,500 compounds were called active. Roughly 18% stayed inconclusive and do not appear here. Some of the results follow.
// NB: equality with 1 counts as false (0); only normalized growth strictly below is true (1)

molecule: O=c1cc(-c2ccccc2)oc2cc(O)cc(O)c12
qualitative label: true (1)

molecule: CC1CC2C3CC(F)C4=CC(=O)C=CC4(C)C3(F)C(O)CC2(C)C1C(=O)COC(=O)C(C)(C)C (stereo unspecified)
qualitative label: false (0)

molecule: Nc1cc(-c2ccncc2)c[nH]c1=O
qualitative label: true (1)

Attention now shifts to the item below.
Is normalized growth of O=c1cc(-c2cc(O)c(O)c(O)c2)oc2cc(O)cc(O)c12 strictly below 1? false (0)

----------
assay summary: chemical genetic growth profiling, strain panel (AID 1159580);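 also: tested at 20 µM; growth read once vehicle control cultures reached saturation at 30 °C; 1 = growth at the plate median or of vehicle wells; lower values mean less growth of the strain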
conditions: S. cerevisiae deletion strains, growth OD, locus YNL322C, strain KRE1, active compounds read low
Out of some 5,500 compounds screened, about 2,000 (36%) were called active. Roughly 18% stayed inconclusive and do not appear here. This is one part of the list.
property measured: normalized growth
Returns: the value as a bare number; no unit string appended.

# annotated cases, reported normalized growth shown
compound: O=C(Nc1nncs1)c1ccncc1
property measured: normalized growth
observed value: 1

compound: COc1cc(C)c(C(=O)Oc2cc(C)c(C(=O)O)c(O)c2C)c(OC)c1C
property measured: normalized growth
observed value: 1

Let us move to another entry and its normalized growth.
response.value for O=C(CSc1nnc(NC(=O)c2cccc([N+](=O)[O-])c2)s1)Nc1ccc2c(c1)OCO2 (field: normalized growth) = 0.989

----------
assay summary: chemical genetic growth profiling, strain panel (AID 1159580);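 also: tested at 20 µM; growth read once vehicle control cultures reached saturation at 30 °C; 1 = growth at the plate median or of vehicle wells; lower values mean less growth of the strain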
conditions: S. cerevisiae deletion strains, growth OD, locus YER110C, active compounds read low
The whole screen tested about 5,500 compounds, of which about 2,000 (36%) were called active. Not shown: some 18% with an inconclusive outcome. The list shows a part of the results.
property measured: normalized growth

Before answering, review these 10 worked examples.
compound: Nc1ccn(C2O[C@H](CO)[C@@H](O)[C@H]2O)c(=O)n1 (some centres not stated)
normalized growth: 1.01 (inactive)
//
compound: Cc1cc(=O)oc2c(O)c(O)ccc12
normalized growth: 0.993 (inactive)
//
compound: O=c1cc(-c2cc(O)c(O)c(O)c2)oc2cc(O)cc(O)c12
normalized growth: 0.996 (inactive)
//
compound: C=C[C@H]1CN2CC[C@H]1C[C@@H]2[C@H](O)c1ccnc2ccccc12
normalized growth: 0.981 (inactive)
//
compound: N[C@@H]1[C@@H](O)[C@H](O)[C@@H](CO)O[C@H]1O
normalized growth: 1 (inactive)
//
compound: CN(C)N=Nc1nc[nH]c1C(N)=O
normalized growth: 0.995 (inactive)
//
compound: COC(=O)c1c(C)cc(OC(=O)c2c(C)cc(O)c(C=O)c2O)c(C)c1O
normalized growth: 1.03 (inactive)
//
compound: C[C@]12C=CC(=O)C=C1CCC1C3C[C@@H](O)[C@](O)(C(=O)CO)[C@@]3(C)C[C@H](O)[C@@]12F (some centres not stated)
normalized growth: 0.979 (inactive)
//
compound: CC12CC3CC(C)(C1)CC(N)(C3)C2
normalized growth: 1 (inactive)
//
compound: O=c1cc(-c2ccccc2)oc2cc(O)cc(O)c12
normalized growth: 0.945 (inactive)

Noted for CC(=O)OCC(=O)[C@@]1(O)[C@H](OC(C)=O)CC2C3CCC4=CC(=O)C=C[C@]4(C)[C@@]3(F)[C@@H](O)C[C@@]21C (some centres not stated) : its normalized growth reads 0.974 (inactive)

What the record says about CC(=O)O[C@H]1C[C@@H](OC(C)=O)C(C)(C)C2CC(=O)[C@]3(C)C(CC[C@@]4(C)[C@H](c5ccoc5)OC(=O)[C@H]5O[C@]543)[C@]21C (some centres not stated) : normalized growth is 1.02 (inactive)

----------
assay summary: chemical genetic growth profiling, strain panel (AID 1159580);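 also: tested at 20 µM; growth read once vehicle control cultures reached saturation at 30 °C; 1 = growth at the plate median or of vehicle wells; lower values mean less growth of the strain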
conditions: S. cerevisiae deletion strains, growth OD, locus YHR129C, strain ARP1
The campaign covered roughly 5,500 compounds. About 2,000 (36%) were called active. Another 18% or so got no clear call; they are omitted. Cut-off read from the data, not from the text of the source: active = normalized growth mostly below about 0.91 (no sharp cut-off); inconclusive = no clear call, values can overlap the other calls; inactive = mostly above about 0.92. Some of the results follow.
Permitted responses: active, inactive

# count of solved cases: 10
molecule: CC1(C)C(O)CC(O)C2(C)C1CC(O)C1(C)C2CCC2(C)C(c3ccoc3)OC(=O)C3OC321 (stereo not drawn)
qualitative label: inactive

molecule: O=c1cc(-c2cc(O)c(O)c(O)c2)oc2cc(O)cc(O)c12
qualitative label: inactive

molecule: CC(CN1c2ccccc2Sc2ccccc21)N(C)C (stereo not drawn)
qualitative label: inactive

molecule: CN1CC(CNC(=O)OCc2ccccc2)CC2c3cccc4c3c(cn4C)CC21 (stereo not drawn)
qualitative label: inactive

molecule: CN(C)CCC(c1ccc(Br)cc1)c1ccccn1 (stereo not drawn)
qualitative label: inactive

molecule: NNCCc1ccccc1
qualitative label: inactive

molecule: CNCCCN1c2ccccc2CCc2ccccc21
qualitative label: inactive

molecule: C[C@H](N)[C@H](O)c1ccccc1
qualitative label: inactive

molecule: COc1cc(OC)c(OC)cc1C=O
qualitative label: inactive

molecule: CCC(=O)c1ccc2c(c1)N(CC(C)N(C)C)c1ccccc1S2 (stereo not drawn)
qualitative label: inactive

What did this assay record as the result for Nc1ccn(C2O[C@H](CO)[C@@H](O)[C@H]2O)c(=O)n1 (stereo partly drawn) ? inactive

Fill in: this test's call for CC(=O)O[C@H]1C[C@@H](OC(C)=O)C(C)(C)C2CC(=O)[C@]3(C)C(CC[C@@]4(C)[C@H](c5ccoc5)OC(=O)[C@H]5O[C@]543)[C@]21C (stereo partly drawn) is ___ inactive

# lookup: test call for CC(CN(C)C)CN1c2ccccc2CCc2ccccc21 (stereo not drawn) inactive

Call for entry COc1cc2c(cc1/C=C/C(=O)c1cc(OC)c(OC)cc1OC)OCO2 : inactive

GET /call?item= S=P(N1CC1)(N1CC1)N1CC1 returns the recorded outcome of this test. inactive

For this molecule, state the assay outcome: COc1cc(OC)c2c3c1C(=O)c1c(OC)cc(C)c4c(OC)cc(c-3c14)C(C)(C)C2=O inactive

Any idea what this test logged for CCCCC[C@H](CC(=O)NO)C(=O)N[C@H](C(=O)N1CCC[C@H]1CO)C(C)C ? inactive

Returns: the outcome recorded for COc1cc(C)c(C(=O)Oc2cc(C)c(C(=O)O)c(O)c2C)c(OC)c1C in this assay. inactive

Can you look up the reported call for COc1cc(C(=O)O)c2c(c1C)OC(=O)c1c(C)cc(O)c(C=O)c1O2 for me? inactive

Which outcome did this test record for the molecule CN[C@@H]1[C@H](OC2[C@H](O[C@H]3[C@H](O)[C@@H](O)[C@H](N=C(N)N)[C@@H](O)[C@@H]3N=C(N)N)O[C@@H](C)[C@]2(O)C=O)O[C@@H](CO)[C@H](O)[C@H]1O (stereo partly drawn) ? inactive

Dear all, I need the recorded test outcome for CN(C(=O)CN(CCO)CC(=O)N(C)C(C)(C)Cc1ccccc1)C(C)(C)Cc1ccccc1 , thank you. inactive

Each molecule tested received a call. Report the one for Cc1cc(O)c(C=O)c2c1C(=O)Oc1c(C)c(O)c3c(c1O2)C(O)OC3=O (stereo not drawn) . inactive

Given CC(CN1c2ccccc2Sc2cccnc21)N(C)C (stereo not drawn) , state the outcome it received in this test. inactive

What did the test return for C=C1C(C2(C)C=CC(=O)C(C)(C)C2CC(=O)OC)CC[C@@]2(C)[C@H](c3ccoc3)OC(=O)C3OC132 (stereo partly drawn) ? inactive

Which result was noted for this molecule in the test: O=c1cc(-c2ccccc2)oc2cc(O)c(O)c(O)c12 active

Hi team, can someone confirm the assay call for CCN(CCCc1ccccc1)CCCc1ccccc1 ? inactive

# fetch the recorded call for C[C@@H](N)[C@@H](O)c1ccccc1 here inactive

Just curious, what result did O=c1cc(-c2ccccc2)oc2cc(O)cc(O)c12 get here? inactive

I'd appreciate the recorded outcome for Cc1cc(=O)oc2c(O)c(O)ccc12 from this test. inactive

Which outcome was entered for the molecule CCN(CC)CCOC(=O)C(c1ccccc1)c1ccccc1 in this test? inactive

Please share the test call associated with NC(N)=O . inactive

// data source = PubChem BioAssay AID1159580
